Task for the reader: assign each of the following compounds its reported pKi.
Biological target: T1, memapsin 2 (Homo sapiens, UniProt P56817)
T1 construct: pET-11 vector-derived residues 1-15 of promemapsin 2-T1 (N, cleaved yes); made in house; host or cells: E. coli
T1 sequence (P56817 41-454 limits assumed): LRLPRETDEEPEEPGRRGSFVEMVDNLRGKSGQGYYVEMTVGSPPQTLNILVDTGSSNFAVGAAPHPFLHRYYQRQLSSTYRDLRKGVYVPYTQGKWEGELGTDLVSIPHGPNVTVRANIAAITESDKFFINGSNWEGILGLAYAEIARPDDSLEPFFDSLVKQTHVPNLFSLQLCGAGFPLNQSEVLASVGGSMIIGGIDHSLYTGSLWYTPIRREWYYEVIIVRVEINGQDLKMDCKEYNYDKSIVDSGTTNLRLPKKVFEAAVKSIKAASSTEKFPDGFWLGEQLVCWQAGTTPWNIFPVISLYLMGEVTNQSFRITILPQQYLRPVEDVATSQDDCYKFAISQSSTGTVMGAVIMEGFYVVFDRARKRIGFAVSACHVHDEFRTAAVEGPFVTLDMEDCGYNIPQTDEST
Test: Inhibition of memapsin 2 proteolytic activity, fluorogenic substrate FS-2
Format: biochemical
Details: memapsin 2; apparent Ki in presence of substrate FS-2; read-out: Ki app
Answers are plain numbers, as −log10 of the molar value.

CSCC[C@H](NC(=O)[C@@H](NC(=O)OC(C)(C)C)C(C)C)C(=O)N[C@@H](CC(C)C)[C@@H](O)C[C@@H](C)C(=O)N[C@@H](CC(C)C)C(=O)N1CCOCC1 = 5.17

// for each compound below, give its pKi
1. CSCC[C@H](NC(=O)[C@H](CC(C)C)NC(=O)OC(C)(C)C)C(=O)N[C@@H](CC(C)C)[C@@H](O)C[C@@H](C)C(=O)N[C@H](C(=O)NCc1ccccc1)C(C)C
2. CSCC[C@H](NC(=O)OCn1nc(C)cc1C)C(=O)N[C@@H](CC(C)C)[C@@H](O)C[C@@H](C)C(=O)N[C@@H](CC(C)C)C(=O)NCC(C)C
3. CSCC[C@H](NC(=O)OCCn1nc(C)c2c1CS(=O)(=O)C2)C(=O)N[C@@H](CC(C)C)[C@@H](O)C[C@@H](C)C(=O)N[C@@H](CC(C)C)C(=O)NC(C)C
4. CSCC[C@H](NC(=O)[C@H](CC(C)C)NC(=O)OC(C)(C)C)C(=O)N[C@@H](CC(C)C)[C@@H](O)C[C@@H](C)C(=O)N[C@@H](CC(C)C)C(=O)NC(C)C
5. COCOCC[C@H](NC(=O)[C@H](CC(C)C)NC(=O)OC(C)(C)C)C(=O)N[C@@H](CC(C)C)[C@@H](O)C[C@@H](C)C(=O)N[C@@H](CC(C)C)C(=O)NC(C)C

8.31
6.97
5.61
9.28
7.54

Hi, could you look up pKi for each item in my list?
1. CCC[C@H](C[C@H](O)[C@H](CC(C)C)NC(=O)[C@H](CSC)NC(=O)O[C@@H]1C[C@@H]2CCO[C@@H]2C1)C(=O)N[C@H](C(=O)NCc1ccccc1)C(C)C
2. CSCC[C@H](NC(=O)C(C)Cn1nc(C)cc1C)C(=O)N[C@@H](CC(C)C)[C@@H](O)C[C@@H](C)C(=O)N[C@H](C(=O)NCC(C)C)C(C)C (some centres unmarked) [MMI-196]
3. CSCC[C@H](NC(=O)OCc1cccnc1)C(=O)N[C@@H](CC(C)C)[C@@H](O)C[C@@H](C)C(=O)N[C@H](C(=O)NCc1ccccc1)C(C)C
4. CC(C)C[C@H](NC(=O)[C@H](CCS(C)(=O)=O)NC(=O)[C@@H](NC(=O)OC(C)(C)C)C(C)C)[C@@H](O)C[C@@H](C)C(=O)N[C@@H](C)C(=O)NCc1ccccc1
5. CCC[C@H](C[C@H](O)[C@H](CC(C)C)NC(=O)[C@H](CSC)NC(=O)OCc1cccnc1)C(=O)N[C@H](C(=O)NCc1ccccc1)C(C)C

1: 4.94; 2: 7.54; 3: 5.86; 4: 7.05; 5: 6.06

----------
Biological target: T1, memapsin 2 (Homo sapiens, UniProt P56817)
T1 construct: pET-11 vector-derived residues 1-15 of promemapsin 2-T1 (N, cleaved yes); made in house; host or cells: E. coli
Assay: Inhibition of memapsin 2 proteolytic activity, fluorogenic substrate FS-2
Type: biochemical
Conditions: memapsin 2; independent of substrate, converted from Ki apparent; read-out: Ki
result.type: pKi
Answers are plain numbers, as −log10 of the molar value.

CCC[C@H](C[C@H](O)[C@H](CC(C)C)NC(=O)[C@H](CSC)NC(=O)O[C@H]1CCOC1)C(=O)N[C@H](C(=O)NCc1ccccc1)C(C)C = 5.97

Report pKi for each item below.
1. CSCC[C@H](NC(=O)[C@H](CC(C)C)NC(=O)OC(C)(C)C)C(=O)N[C@@H](CC(C)C)[C@H](O)C[C@@H](C)C(=O)N[C@H](C(=O)NCc1ccccc1)C(C)C
2. CSCC[C@H](NC(=O)OC(C)(C)Cn1nc(C)cc1C)C(=O)N[C@@H](CC(C)C)[C@@H](O)C[C@@H](C)C(=O)N[C@@H](CC(C)C)C(=O)NC(C)C
3. CSCC[C@H](NC(=O)OCCn1nc(C)cc1C)C(=O)N[C@@H](CC(C)C)[C@@H](O)C[C@@H](C)C(=O)N[C@@H](CC(C)C)C(=O)NCC(C)C
4. CSCC[C@H](NC(=O)OCCn1nc(C)c2c1CSC2)C(=O)N[C@@H](CC(C)C)[C@@H](O)C[C@@H](C)C(=O)N[C@@H](CC(C)C)C(=O)NC(C)C

[7.21, 6.05, 7.16, 5.92]

----------
Target: T1, memapsin 2 (Homo sapiens, UniProt P56817)
T1 construct: pET-11 vector-derived residues 1-15 of promemapsin 2-T1 (N, cleaved yes); made in house; host or cells: E. coli
Experiment: Inhibition of memapsin 2 proteolytic activity, fluorogenic substrate FS-2
Format: biochemical
Settings: ratio of % inhibition memapsin 1 / memapsin 2; 1 or less = greater inhibition of memapsin 2
Provide the recorded % Inh (M1/M2) for the entries that follow.
Give bare numbers.

CSCC[C@H](NC(=O)OCn1nc(C)cc1C)C(=O)N[C@@H](CC(C)C)[C@@H](O)C[C@@H](C)C(=O)N[C@@H](CC(C)C)C(=O)NC(CF)CF = 0.18
CSCC[C@H](NC(=O)OCn1nc(C)cc1C)C(=O)N[C@@H](CC(C)C)[C@@H](O)C[C@@H](C)C(=O)N[C@H](C(=O)NCC(C)C)C(C)C = 0.47
CSCC[C@H](NC(=O)OCn1nc(C)cc1C)C(=O)N[C@@H](CC(C)C)[C@@H](O)C[C@@H](C)C(=O)N[C@H](C(=O)NCc1ccccc1)C(C)C = 0.10
Cc1cc(C)n(COC(=O)N[C@@H](CCS(C)(=O)=O)C(=O)N[C@@H](CC(C)C)[C@@H](O)C[C@@H](C)C(=O)N[C@H](C(=O)NCc2ccccc2)C(C)C)n1 = 0

Now for the compound whose % Inh (M1/M2) we want.
For this compound ( `CSCC[C@H](NC(=O)OCCn1nc(C(C)C)cc1C(C)C)C(=O)N[C@@H](CC(C)C)[C@@H](O)C[C@@H](C)C(=O)N[C@H](C(=O)NCC(C)C)C(C)C` ), measured % Inh (M1/M2) is 0
